Tested on: Clostridium difficile (Isolate ID ATCC 9689)
experiment: Bacterial Assay: Determination of Antibacterial Activity (MIC, broth microdilution or agar dilution)
Assay type: cell-based
condition context: Clostridioides difficile, ATCC9689, 48 h, read-out: C. difficile MIC Activity Range
measured parameter: MIC

NC(=O)c1c(F)ccc(OC(CO)c2nc(-c3ccc(F)cc3F)c(Br)o2)c1F (stereo not drawn) | < 1.01 µg/mL
NC(=O)c1c(F)ccc(OCCCCOc2ccc(OC(F)F)cc2)c1F | < 1.01 µg/mL
Cc1ccc(-c2nc(CCOc3ccc(F)c(C(N)=O)c3F)c(C)o2)cc1 | 1 to 4 µg/mL
NC(=O)c1c(F)ccc(OC(COC(=O)NCCO)c2nc(-c3ccc(C(F)(F)F)cc3)c(Br)o2)c1F (stereo not drawn) | < 1.01 µg/mL
CNCNC(=O)c1c(F)ccc(OCc2nc3cc(Cl)cnc3s2)c1F | 4 to 16 µg/mL

Parameters: items (list). Returns: MIC for each item.
1. COc1ccc(OCCCCOc2ccc(F)c(C(N)=O)c2F)cc1
2. NC(=O)CN(CCCCOc1ccc(OC(F)(F)F)cc1)c1ccc(F)c(C(N)=O)c1F
3. NC(=O)c1c(F)ccc(OCCCCOc2ccc(Cl)c(Cl)c2)c1F
4. Cc1sc(COc2ccc(F)c(C(N)=O)c2F)nc1-c1ccc(Cl)cc1

Reply |
1 to 4 µg/mL
4 to 16 µg/mL
< 1.01 µg/mL
< 1.01 µg/mL

###

For each of the molecules below, state its MIC.
System: Clostridium difficile (Isolate ID ATCC 9689)
experiment: Bacterial Assay: Determination of Antibacterial Activity (MIC, broth microdilution or agar dilution)
Format: cell-based
condition context: Clostridioides difficile, ATCC9689, 48 h, read-out: C. difficile MIC Activity Range

Consider the reported MIC for these molecules:
NC(=O)c1c(F)ccc(OCCCCOc2ccc(OC(F)(F)F)c(Br)c2)c1F [Compound 163] | < 1.01 µg/mL
COc1ccc(CNC(=O)OCC(Oc2ccc(F)c(C(N)=O)c2F)c2nc(-c3ccc(C(F)(F)F)cc3)c(Br)o2)cn1 (centres unmarked) [Compound 83] | < 1.01 µg/mL

Parameters: items (list). Returns: MIC for each item.
1. CCOC(=O)COCC(Oc1ccc(F)c(C(N)=O)c1F)c1nc(-c2ccc(C(F)(F)F)cc2)c(Br)o1 (centres unmarked) [Compound 44]
2. NC(=O)c1c(F)ccc(OCc2nc(-c3ccc(S(F)(F)(F)(F)F)cc3)ns2)c1F [Compound 110]
3. NC(=O)c1c(F)ccc(OCCCCNc2ccc(C(F)(F)F)cc2)c1F [Compound 147]
4. NC(=O)c1c(F)ccc(OCc2nc(-c3ccc(C(F)(F)F)cc3)cs2)c1F [Compound 16]
5. NC(=O)c1c(F)ccc(O[C@@H](CO)c2nc(-c3ccc(C(F)(F)F)cc3)c(Br)o2)c1F [Compound 41]
6. NC(=O)c1c(F)ccc(OC(COC(=O)CN2C(=O)c3ccccc3C2=O)c2nc(-c3ccc(C(F)(F)F)cc3)c(Br)o2)c1F (centres unmarked) [Compound 38]
7. CNCC(=O)OCC(Oc1ccc(F)c(C(N)=O)c1F)c1nc(-c2ccc(C(F)(F)F)cc2)c(Br)o1 (centres unmarked) [Compound 39]
8. Cc1ccc(CNC(=O)OCC(Oc2ccc(F)c(C(N)=O)c2F)c2nc(-c3ccc(C(F)(F)F)cc3)c(Br)o2)cn1 (centres unmarked) [Compound 89]

Reply |
["4 to 16 µg/mL", "< 1.01 µg/mL", "1 to 4 µg/mL", "< 1.01 µg/mL", "1 to 4 µg/mL", "< 1.01 µg/mL", "< 1.01 µg/mL", "< 1.01 µg/mL"]

Parameters: items (list). Returns: MIC for each item.
1. CCOC(=O)c1cc(Cl)ccc1-c1csc(COc2ccc(F)c(C(N)=O)c2F)n1 [Compound 190]
2. N#Cc1ccc(OCCCCOc2ccc(F)c(C(N)=O)c2F)cc1 [Compound 177]
3. NC(=O)c1c(F)ccc(OCCCCOc2ccc(Cl)cc2Cl)c1F [Compound 137]

Reply |
1. 4 to 16 µg/mL
2. 1 to 4 µg/mL
3. < 1.01 µg/mL

Parameters: items (list). Returns: MIC for each item.
1. NC(=O)c1c(F)ccc(OCc2nc(-c3ccc(OC(F)(F)F)cc3)cs2)c1F [Compound 17]
2. NC(=O)c1c(F)ccc(OCCCCOc2ccccc2)c1F [Compound 151]
3. Cc1ccc(CN(CCCCOc2ccc(OC(F)(F)F)cc2)c2ccc(F)c(C(N)=O)c2F)cn1 [Compound 185]
4. NC(=O)c1c(F)ccc(NCc2nc(-c3ccc(C(F)(F)F)cc3)cs2)c1F [Compound 122]
5. NC(=O)c1c(F)ccc(OC(COC(=O)N2CCOCC2)c2nc(-c3ccc(C(F)(F)F)cc3)c(Br)o2)c1F (centres unmarked) [Compound 58]
6. NC(=O)c1c(F)ccc(OC(COC(=O)NCc2ccccn2)c2nc(-c3ccc(C(F)(F)F)cc3)c(Br)o2)c1F (centres unmarked) [Compound 61]
7. CCOC(=O)CN(CCCCOc1ccc(OC(F)(F)F)cc1)c1ccc(F)c(C(N)=O)c1F [Compound 186]
8. NC(=O)c1c(F)ccc(OC(COC(=O)NCCn2ccccc2=O)c2nc(-c3ccc(C(F)(F)F)cc3)c(Br)o2)c1F (centres unmarked) [Compound 92]

Reply |
["< 1.01 µg/mL", "1 to 4 µg/mL", "4 to 16 µg/mL", "< 1.01 µg/mL", "4 to 16 µg/mL", "1 to 4 µg/mL", "1 to 4 µg/mL", "1 to 4 µg/mL"]

Parameters: items (list). Returns: MIC for each item.
1. NC(=O)c1c(F)ccc(OCc2nc(-c3ccc(C(F)(F)F)cc3)c(Br)s2)c1F [Compound 211]
2. NC(=O)c1c(F)ccc(OCCCCOc2ccc(Cl)c(C(F)(F)F)c2)c1F [Compound 169]
3. NC(=O)c1c(F)ccc(OCCc2nc(-c3ccc(OC(F)(F)F)cc3)cs2)c1F [Compound 111]
4. NC(=O)c1c(F)ccc(OC(COC(=O)Nc2ccncc2)c2nc(-c3ccc(C(F)(F)F)cc3)c(Br)o2)c1F (centres unmarked) [Compound 67]
5. NC(=O)c1c(F)ccc(OCCCCOc2ccc(C(F)(F)F)cn2)c1F [Compound 141]
6. CC(=O)OCC(Oc1ccc(F)c(C(N)=O)c1F)c1nc(-c2ccc(OC(F)(F)F)cc2)c(Br)o1 (centres unmarked) [Compound 51]

Reply |
1: 1 to 4 µg/mL; 2: < 1.01 µg/mL; 3: < 1.01 µg/mL; 4: 1 to 4 µg/mL; 5: < 1.01 µg/mL; 6: < 1.01 µg/mL

Parameters: items (list). Returns: MIC for each item.
1. CNC(=O)CCC(Oc1ccc(F)c(C(N)=O)c1F)c1nc(-c2ccc(C(F)(F)F)cc2)c(Br)o1 (centres unmarked) [Compound 48]
2. NC(=O)c1c(F)ccc(OCCCCOc2ccc(S(F)(F)(F)(F)F)cc2)c1F [Compound 159]
3. C=CCc1ccc2sc(COc3ccc(F)c(C(N)=O)c3F)nc2c1 [Compound 14]

Reply |
1 to 4 µg/mL
< 1.01 µg/mL
4 to 16 µg/mL

Parameters: items (list). Returns: MIC for each item.
1. NC(=O)c1c(F)ccc(SCCCCOc2ccc(OC(F)(F)F)cc2)c1F [Compound 157]
2. NC(=O)c1c(F)ccc(OCCCCOc2ccc(C(F)(F)F)cc2)c1F [Compound 129]

Reply |
1: 1 to 4 µg/mL; 2: < 1.01 µg/mL

###

System: Clostridium difficile (Isolate ID ATCC 9689)
experiment: Bacterial Assay: Determination of Antibacterial Activity (MIC, broth microdilution or agar dilution)
Assay type: cell-based
condition context: Clostridioides difficile, ATCC9689, 48 h, read-out: C. difficile MIC Activity Range
For each of the molecules below, state its MIC.

Consider the reported MIC for these molecules:
NC(=O)c1c(F)ccc(OC(CNC(=O)c2cccnc2)c2nc(-c3ccc(C(F)(F)F)cc3)c(Br)o2)c1F (racemic) | 1 to 4 µg/mL
CNCNC(=O)c1c(F)ccc(OC(C)c2nc(-c3ccc(OC(F)(F)F)cc3)c(Cl)o2)c1F (centres unmarked) | < 1.01 µg/mL
COC(=O)CCNC(=O)OCC(Oc1ccc(F)c(C(N)=O)c1F)c1nc(-c2ccc(C(F)(F)F)cc2)c(Br)o1 (centres unmarked) | 1 to 4 µg/mL
COCCN(CCCCOc1ccc(OC(F)(F)F)cc1)c1ccc(F)c(C(N)=O)c1F | 1 to 4 µg/mL
NC(=O)c1c(F)ccc(OCc2nc(-c3ccc(Cl)nc3)cs2)c1F | 1 to 4 µg/mL
CC(Nc1ccc(F)c(C(N)=O)c1F)c1nc(-c2ccc(OC(F)(F)F)cc2)c(Br)o1 (centres unmarked) | 1 to 4 µg/mL
NC(=O)c1c(F)ccc(OCc2cnn(-c3ccc(Cl)cc3)n2)c1F | 1 to 4 µg/mL
NC(=O)c1c(F)ccc(O[C@H](CO)c2nc(-c3ccc(C(F)(F)F)cc3)c(Br)o2)c1F (racemic) [Compound 32] | < 1.01 µg/mL
CNC(=O)OCC(Oc1ccc(F)c(C(N)=O)c1F)c1nc(-c2ccc(C(F)(F)F)cc2)c(Br)o1 (centres unmarked) | < 1.01 µg/mL
NC(=O)c1c(F)ccc(NCCCCOc2ccc(OC(F)(F)F)cc2)c1F | 1 to 4 µg/mL

Parameters: items (list). Returns: MIC for each item.
1. N/C(=N\O)c1c(F)ccc(OCCCCOc2ccc(C(F)(F)F)cn2)c1F
2. NC(=O)c1c(F)ccc(OCCCCOc2cccc(Br)c2)c1F
3. NC(=O)c1c(F)ccc(OC(CO)c2nc(-c3ccc(Cl)cc3)c(Br)o2)c1F (centres unmarked)
4. COCCNC(=O)OCC(Oc1ccc(F)c(C(N)=O)c1F)c1nc(-c2ccc(C(F)(F)F)cc2)c(Br)o1 (centres unmarked)
5. Cn1c(CNC(=O)OCC(Oc2ccc(F)c(C(N)=O)c2F)c2nc(-c3ccc(C(F)(F)F)cc3)c(Br)o2)nc2ccccc21 (centres unmarked)

Reply |
4 to 16 µg/mL
1 to 4 µg/mL
< 1.01 µg/mL
< 1.01 µg/mL
1 to 4 µg/mL
